Target: histone deacetylase 8 (HDAC8) (Homo sapiens)
Sequence (Q9BY41 1-377): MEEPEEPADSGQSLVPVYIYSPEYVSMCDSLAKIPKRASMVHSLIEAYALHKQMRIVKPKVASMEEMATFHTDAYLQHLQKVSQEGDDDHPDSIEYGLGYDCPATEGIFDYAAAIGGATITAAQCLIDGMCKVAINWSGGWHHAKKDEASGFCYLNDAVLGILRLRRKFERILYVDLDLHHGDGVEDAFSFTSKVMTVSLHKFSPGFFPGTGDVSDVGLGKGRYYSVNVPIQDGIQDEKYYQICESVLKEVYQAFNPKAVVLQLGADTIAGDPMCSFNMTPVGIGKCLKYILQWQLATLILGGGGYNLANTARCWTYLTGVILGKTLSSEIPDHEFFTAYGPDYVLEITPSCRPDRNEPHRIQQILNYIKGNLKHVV
measured.attribute: IC50 (nM)
Answers are plain numbers, in nM.

Specify reported IC50 for the compound shown: N[C@@H](CCCCC(=O)C(F)(F)F)C(=O)O [compound 10]
1500
